Biological target: T1, Full length Mouse TfR on CHO cells (mouse, UniProt Q62351 1-763)
T1 construct: also called CHO + muTfR
T1 sequence (Q62351 whole entry): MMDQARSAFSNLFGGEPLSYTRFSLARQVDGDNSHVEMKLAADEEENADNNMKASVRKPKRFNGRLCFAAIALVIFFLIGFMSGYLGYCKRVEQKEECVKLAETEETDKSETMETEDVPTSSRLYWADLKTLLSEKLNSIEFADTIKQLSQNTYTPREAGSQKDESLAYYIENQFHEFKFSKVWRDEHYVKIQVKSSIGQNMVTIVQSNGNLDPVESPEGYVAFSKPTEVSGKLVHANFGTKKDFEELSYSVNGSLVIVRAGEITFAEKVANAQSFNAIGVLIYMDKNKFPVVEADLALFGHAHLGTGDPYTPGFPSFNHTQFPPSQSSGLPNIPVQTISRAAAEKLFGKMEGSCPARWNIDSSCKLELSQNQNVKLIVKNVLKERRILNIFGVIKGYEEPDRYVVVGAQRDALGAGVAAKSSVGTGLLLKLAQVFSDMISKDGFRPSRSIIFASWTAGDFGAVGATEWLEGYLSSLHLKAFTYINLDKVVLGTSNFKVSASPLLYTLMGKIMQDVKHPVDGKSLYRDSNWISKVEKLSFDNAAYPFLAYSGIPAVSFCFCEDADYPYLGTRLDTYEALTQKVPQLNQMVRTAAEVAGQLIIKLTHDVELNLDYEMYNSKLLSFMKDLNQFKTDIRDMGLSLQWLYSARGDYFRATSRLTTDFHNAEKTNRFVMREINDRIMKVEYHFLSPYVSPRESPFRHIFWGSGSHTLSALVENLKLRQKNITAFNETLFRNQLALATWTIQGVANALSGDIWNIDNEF
Experiment: FACS, CHO+muTfR
Measure name: binding result

>  <Binder>
TfR5 (mouse hybridoma antibody) (antibody, V domains shown, mouse IgG in hybridoma supernatant) VH: QVQLQQSGPELVKPGASVKMSCKASGYTFTNYYIHWVKQRPGQGLEWIGWIYPGDGNTNYNEKFKGKTTLTADKSSSTAYMLLSSLTSEDSAIYFCARDGSSAPKFTYWGQGTLVTVSA VL: DIVMTQSPSSLTVTAGEKVTMRCKSSQSLLNSGNQKNYLTWYQQKPGQPPKLLFYWASTRESGVPDRFTGSGSGTDFTLTISSVQAEDLAVYYCQNDYSYPLTFGAGTKLELK

>  <Measure name>
binding result

>  <Result>
no binding

$$$$
>  <Binder>
TfR28 (mouse hybridoma antibody) (antibody, V domains shown, mouse IgG in hybridoma supernatant) VH: DVQLQESGPGLVKPSQSLSLTCTVTGYSITSDYAWNWIRQFPGNKLEWMGYISYSGSTSYNPSLRSRISITRDTSKNQFFLQLNSVTTEDTATYYCAIRGYRYEEDYWGQGTTLTVSS VL: QIVLTQSPAIMSASPREKVTMTCSASSSISSMHWYQQKPGTSPKRWIYDTSKLASGVPARFSGSGSGTSYSLTISSMEAEDAATYYCHQRSSYPWTFGGGTKLEIK

>  <Measure name>
binding result

>  <Result>
no binding

$$$$
>  <Binder>
TfR27 (mouse hybridoma antibody) (antibody, V domains shown, mouse IgG in hybridoma supernatant) VH: QVQLQQPGSELVRPGASVKLSCKASGYTFTSYWMHWVKQRPGQGLEWIGNIYPGTGSTNYDEKFKSKATLTVDTSSSTAYMQLSSLTSEDSAVYYCTRSSYYGNFDTMDYWGQGTSVTVSS VL: QIFLTQSPAIMSASPGERVTMTCSASSSIRYMNWYQQKPGTSPKRWIYDTSELASGVPARFTGSGSGTSYSLTISSMEAEDAATYYCHQRSGYPWTFGGGTKLEIK

>  <Measure name>
binding result

>  <Result>
no binding

$$$$
